Catalogue of pKd values
# tested on: TSLP, Q969D9
# method description: Kd (SPR)
The scale used: pKd is minus the common logarithm of the concentration in molar units.

Use these answered entries as a reference point.
binder="unnamed (protein) chain 1: QMQLVESGGGVVQPGRSLRLSCAASGFTFRTYGMHWVRQAPGKGLEWVAVIWYDGSNKHYADSVKGRFTITRDNSKNTLNLQMNSLRAEDTAVYYCARAPRYYEYLEAFDVWGQGTMVTVSS chain 2: SYVLTQPPSVSVAPGQTARITCGGNNLGSKSVHWYQQKPGQAPVLVVYDDSDRPSWIPERFSGSNSGNTATLTISRGEAGDEADYYCQVWDSSSDHVVFGGGTKLTVL" readout_number=7.50
binder="unnamed (protein) chain 1: QMQLVESGGGVVQPGRSLRLSCAASGFTFRTYGMHWVRQAPGKGLEWVAVIWYDGSNKHYADSVKGRFTITRDNSKNTLNLQMNSLRAEDTAVYYCARAPRYYDAYEAFDVWGQGTMVTVSS chain 2: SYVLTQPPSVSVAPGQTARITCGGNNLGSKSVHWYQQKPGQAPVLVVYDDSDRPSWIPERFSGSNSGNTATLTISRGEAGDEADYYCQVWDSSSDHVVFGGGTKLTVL" readout_number=7.47
binder="unnamed (protein) chain 1: QMQLVESGGGVVQPGRSLRLSCAASGFTFRTYGMHWVRQAPGKGLEWVAVIWYDGSNKHYADSVKGRFTITRDNSKNTLNLQMNSLRAEDTAVYYCARAPRYDWTYEAFDVWGQGTMVTVSS chain 2: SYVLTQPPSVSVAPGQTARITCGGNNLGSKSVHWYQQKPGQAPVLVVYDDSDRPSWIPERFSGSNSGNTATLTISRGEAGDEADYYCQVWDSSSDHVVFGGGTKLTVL" readout_number=6.89
binder="unnamed (protein) chain 1: QMQLVESGGGVVQPGRSLRLSCAASGFTFSTFAMHWVRQAPGKGLEWVAVIWYDGSNKHYADSVKGRFTITRDNSKNTLNLQMNSLRAEDTAVYYCARSPRYDEYLEAFDVWGQGTMVTVSS chain 2: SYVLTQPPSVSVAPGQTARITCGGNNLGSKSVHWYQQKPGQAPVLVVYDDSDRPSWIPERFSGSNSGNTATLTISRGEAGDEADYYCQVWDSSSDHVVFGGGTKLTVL" readout_number=6.93

Given item unnamed (protein) chain 1: QMQLVESGGGVVQPGRSLRLSCAASGFTFSTFAMHWVRQAPGKGLEWVAVIWYDGSNKHYADSVKGRFTITRDNSKNTLNLQMNSLRAEDTAVYYCARSPRYDWYYEAFDVWGQGTMVTVSS chain 2: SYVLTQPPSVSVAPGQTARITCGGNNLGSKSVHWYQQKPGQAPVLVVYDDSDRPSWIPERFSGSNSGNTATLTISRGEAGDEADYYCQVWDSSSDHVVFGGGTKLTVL , the value recorded as its pKd is 6.90

In plain terms, unnamed (protein) chain 1: QMQLVESGGGVVQPGRSLRLSCAASGFTFRTYGMHWVRQAPGKGLEWVAVIWYDGSNKHYADSVKGRFTITRDNSKNTLNLQMNSLRAEDTAVYYCARAPRYDETWEAFDVWGQGTMVTVSS chain 2: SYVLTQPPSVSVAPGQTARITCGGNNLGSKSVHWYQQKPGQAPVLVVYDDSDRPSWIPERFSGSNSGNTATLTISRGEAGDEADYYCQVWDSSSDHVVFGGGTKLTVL has a documented pKd of 6.85

According to the records, this binder unnamed (protein) chain 1: QMQLVESGGGVVQPGRSLRLSCAASGFTFSTFAMHWVRQAPGKGLEWVAVIWYDGSNKHYADSVKGRFTITRDNSKNTLNLQMNSLRAEDTAVYYCARAPRYYWYWEAFDVWGQGTMVTVSS chain 2: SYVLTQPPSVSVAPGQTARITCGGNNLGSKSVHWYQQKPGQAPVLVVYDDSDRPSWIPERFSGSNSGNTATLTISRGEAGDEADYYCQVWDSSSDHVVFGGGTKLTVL displays pKd of 6.45

Quick note, pKd for unnamed (protein) chain 1: QMQLVESGGGVVQPGRSLRLSCAASGFTFSTYAMHWVRQAPGKGLEWVAVIWYDGSNKHYADSVKGRFTITRDNSKNTLNLQMNSLRAEDTAVYYCARAPRYYDYWEAFDVWGQGTMVTVSS chain 2: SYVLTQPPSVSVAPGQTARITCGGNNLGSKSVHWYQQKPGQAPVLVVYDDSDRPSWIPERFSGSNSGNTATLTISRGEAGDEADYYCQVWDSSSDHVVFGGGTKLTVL landed at 6.55

// pKd value for unnamed (protein) chain 1: QMQLVESGGGVVQPGRSLRLSCAASGFTFSTFAMHWVRQAPGKGLEWVAVIWYDGSNKHYADSVKGRFTITRDNSKNTLNLQMNSLRAEDTAVYYCARAPRYDDYYEAFDVWGQGTMVTVSS chain 2: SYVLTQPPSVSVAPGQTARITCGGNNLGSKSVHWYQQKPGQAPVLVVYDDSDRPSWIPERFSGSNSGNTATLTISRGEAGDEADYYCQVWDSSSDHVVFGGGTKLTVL : 7.03

Looking up unnamed (protein) chain 1: QMQLVESGGGVVQPGRSLRLSCAASGFTFSTFAMHWVRQAPGKGLEWVAVIWYDGSNKHYADSVKGRFTITRDNSKNTLNLQMNSLRAEDTAVYYCARAPRYDWYYEAFDVWGQGTMVTVSS chain 2: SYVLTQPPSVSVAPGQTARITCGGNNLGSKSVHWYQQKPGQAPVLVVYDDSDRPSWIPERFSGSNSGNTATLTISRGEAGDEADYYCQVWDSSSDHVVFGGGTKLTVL , I see its pKd listed as 7.04
